These entries and their values trace back to patent US8518913B2.

molecular target: CCR2 receptor (Homo sapiens, UniProt P41597); construct: expressed in transfected cells; assay: CCR2 calcium activity assay on FLIPR Tetra in HEK-Gqi5 cells stably expressing CCR2; assay type: cell-based; settings: HEK-Gqi5 cells stably expressing CCR2; calcium activity, FLIPR Tetra
Sequence (P41597 whole entry): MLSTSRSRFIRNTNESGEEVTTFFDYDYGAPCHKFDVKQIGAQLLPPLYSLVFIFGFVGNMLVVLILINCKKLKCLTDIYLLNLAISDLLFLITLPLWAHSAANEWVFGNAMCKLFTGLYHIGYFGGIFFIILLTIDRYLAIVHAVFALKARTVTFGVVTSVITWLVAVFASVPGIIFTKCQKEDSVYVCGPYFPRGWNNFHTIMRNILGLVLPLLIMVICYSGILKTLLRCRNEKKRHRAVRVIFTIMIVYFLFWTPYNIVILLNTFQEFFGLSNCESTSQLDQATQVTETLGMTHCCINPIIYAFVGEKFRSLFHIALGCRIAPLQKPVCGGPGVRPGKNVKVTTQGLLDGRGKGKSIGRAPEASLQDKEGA
ASSAY ENDPOINT: CCR2 % ANTAGONISM

MOLECULE: CP(=O)(c1ccc(Cl)cc1NS(=O)(=O)c1ccc(Cl)c(C(F)(F)F)c1)N1CCC(=O)CC1 (stereo not drawn)
ASSAY ENDPOINT: CCR2 % ANTAGONISM
VALUE MEASURED: 87%

MOLECULE: CCOP(C)(=O)c1ccc(Cl)cc1NS(=O)(=O)c1ccc(Cl)c(C(F)(F)F)c1 (stereo not drawn)
ASSAY ENDPOINT: CCR2 % ANTAGONISM
VALUE MEASURED: 80%

MOLECULE: CP(=O)(c1ccc(Cl)cc1NS(=O)(=O)c1ccc(Cl)c(C(F)(F)F)c1)N1CCOCC1 (stereo not drawn)
ASSAY ENDPOINT: CCR2 % ANTAGONISM
VALUE MEASURED: 93%

----------
biological target: CCR2 receptor (Homo sapiens, UniProt P41597); construct: expressed in transfected cells; experiment: CCR2 calcium activity assay on FLIPR Tetra in HEK-Gqi5 cells stably expressing CCR2; assay type: cell-based; conditions: HEK-Gqi5 cells stably expressing CCR2; calcium activity, FLIPR Tetra

COMPOUND: CCCCOP(=O)(c1ccc(Cl)cc1NS(=O)(=O)c1ccc(Cl)c(C(F)(F)F)c1)N1CCC(=O)CC1 (stereo not shown)
CCR2 % ANTAGONISM / %: 84
--
COMPOUND: CP(C)(=O)c1ccc(Cl)cc1NS(=O)(=O)c1ccc(Cl)c(C(F)(F)F)c1
CCR2 % ANTAGONISM / %: 92
--
COMPOUND: COP(=O)(c1ccc(Cl)cc1NS(=O)(=O)c1ccc(Cl)c(C(F)(F)F)c1)N1CCC(=O)CC1 (stereo not shown)
CCR2 % ANTAGONISM / %: 95
--
COMPOUND: CCOP(=O)(c1ccc(Cl)cc1NS(=O)(=O)c1ccc(Cl)c(C(F)(F)F)c1)N1CCOCC1 (stereo not shown)
CCR2 % ANTAGONISM / %: 65

----------
biological target: CCR2 receptor (Homo sapiens, UniProt P41597); construct: expressed in transfected cells; test: CCR2 calcium activity assay on FLIPR Tetra in HEK-Gqi5 cells stably expressing CCR2; assay type: cell-based

COMPOUND: CCOP(C)(=O)c1ccc(Cl)cc1NS(=O)(=O)c1ccc(Cl)c(C(F)(F)F)c1 (stereo not shown)
IC50: 159 nM

----------
target: CCR2 receptor (Homo sapiens, UniProt P41597); construct: expressed in transfected cells; assay: CCR2 calcium activity assay on FLIPR Tetra in HEK-Gqi5 cells stably expressing CCR2; type: cell-based; conditions: HEK-Gqi5 cells stably expressing CCR2; calcium activity, FLIPR Tetra; read-out: CCR2 IC50
Rule: IC50 below 100 nM gives MET. Equal to or above 100 nM gives NOT MET.

COMPOUND: CP(C)(=O)c1ccc(Cl)cc1NS(=O)(=O)c1ccc(Cl)c(C(F)(F)F)c1
LABEL CLASS: NOT MET

COMPOUND: COP(=O)(c1ccc(Cl)cc1NS(=O)(=O)c1ccc(Cl)c(C(F)(F)F)c1)N1CCC(=O)CC1 (stereo not drawn)
LABEL CLASS: NOT MET

COMPOUND: CCOP(=O)(c1ccc(Cl)cc1NS(=O)(=O)c1ccc(Cl)c(C(F)(F)F)c1)N1CCOCC1 (stereo not drawn)
LABEL CLASS: NOT MET

COMPOUND: CP(=O)(c1ccc(Cl)cc1NS(=O)(=O)c1ccc(Cl)c(C(F)(F)F)c1)N1CCOCC1 (stereo not drawn)
LABEL CLASS: MET

COMPOUND: CCCCOP(=O)(c1ccc(Cl)cc1NS(=O)(=O)c1ccc(Cl)c(C(F)(F)F)c1)N1CCC(=O)CC1 (stereo not drawn)
LABEL CLASS: NOT MET

COMPOUND: CP(=O)(c1ccc(Cl)cc1NS(=O)(=O)c1ccc(Cl)c(C(F)(F)F)c1)N1CCC(=O)CC1 (stereo not drawn)
LABEL CLASS: MET
